# TEST PROTOCOL: NCI Yeast Anticancer Drug Screen. Data for the cln2 rad14 strain (AID 165);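 note: 0% = growth equal to vehicle treated cultures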
# EXPERIMENTAL PARAMETERS: S. cerevisiae cln2 rad14 strain, at 5.0 µM (retest, dose inferred, filed as 0.5), active compounds read high
The panel holds about 79,000 compounds, 15% with a hit somewhere; the sample as a whole holds those more often.

# COMPOUND, READOUT UNIT, growth inhibition
rows = [
    ("Cc1[nH]c2ccccc2c1/C=C1/CCCCCCC1=O", "%", 3),
    ("CN1C(=O)c2ccccc2C1(c1ccccc1)c1ccccc1", "%", 13),
    ("COP(=O)(OC)/C(=C/c1cn(C(c2ccccc2)(c2ccccc2)c2ccccc2)cn1)NC=O", "%", 1),
    ("OC(c1ccccc1)(c1ccccc1)C(F)(Cl)Cl", "%", 1),
    ("CCCCCCC1CC(=O)C1(Cl)Cl (configuration not stated)", "%", -4),
    ("Oc1ccccc1C1CCCCC1", "%", 4),
    ("CS(=O)(=O)n1c(C(O)c2ccccc2)nc2ccccc21 (configuration not stated)", "%", -82),
    ("O=C1c2ccccc2C2(O)c3cc4ccccc4cc3OC12O (configuration not stated)", "%", -10),
    ("C/C=C(\\C)[C@H](O)C(COCc1ccccc1)NS(=O)(=O)c1ccc(C)cc1 (some centres not stated)", "%", -2),
    ("ClC1=C(Cl)C(Cl)=C(Cl)C1", "%", 5),
    ("CCCCCCCCCCCCNCc1ccc(Cl)c(Cl)c1", "%", 58),
    ("Oc1ccc(N=Nc2ccccc2)c(O)c1.Oc1ccc(N=Nc2ccccc2)c(O)c1.[Cu]", "%", 1),
]

----------
# TEST PROTOCOL: NCI Yeast Anticancer Drug Screen. Data for the mec2-1 strain (AID 157)
# EXPERIMENTAL PARAMETERS: S. cerevisiae mec2-1 strain, at 50.0 µM (retest, dose inferred, filed as 5.0), active compounds read high
The panel holds about 79,000 compounds, 15% with a hit somewhere; the sample as a whole holds those more often. The source made the active and inactive calls. Cut-off read from the data, not from the text of the source: active = growth inhibition above about 70%; inactive = the rest.

# COMPOUND, growth inhibition
data = [
    ("CC(=O)Oc1ccc(/C=C/c2ccncc2)cc1", "-33% (inactive)"),
    ("N#Cc1ccc2nc3ccc(N)cc3nc2c1", "76% (active)"),
    ("N#CC(CC(=O)O)C(c1cccc2ccccc12)c1cccc2ccccc12 (stereo not given)", "99% (active)"),
    ("NC(CSSCC(N)=NCCCCCSC12CC3CC(CC(C3)C1)C2)=NCCCCCSC12CC3CC(CC(C3)C1)C2", "11% (inactive)"),
    ("CC[N+]1(C)CCC(O)(c2ccc(Cl)c(Cl)c2)C(C(=O)c2ccc(Cl)c(Cl)c2)C1 (stereo not given)", "100% (active)"),
    ("O=c1oc(-c2cccc(C(Cl)Cl)c2)ns1", "100% (active)"),
    ("O=C(CNC(=O)Nc1ccc(NC(=O)NCC(=O)Nc2ccc(C3=NCCN3)cc2)cc1)Nc1ccc(C2=NCCN2)cc1", "-3% (inactive)"),
    ("Nc1ccc(O)c(=O)cc1", "11% (inactive)"),
    ("CN(C)c1cc[c]([Sn]([c]2ccc(N(C)C)cc2)([c]2ccc(N(C)C)cc2)[c]2ccc(N(C)C)cc2)cc1", "4% (inactive)"),
    ("Oc1c2c(c(O)c3ncccc13)C1C=CC2CC1 (stereo not given)", "99% (active)"),
]
